Source of measurements: ChEMBL document CHEMBL3758162

assay: Metabolic stability in mouse liver microsomes assessed as compound remaining at 1 uM preincubated for 10 mins measured after 30 mins by LC-MS/MS analysis; assay type: ADME; conditions: liver microsomes, read-out: Stability
measurement_kind: remaining at 0.5 h, 1 µM (%)

O=C(/C=C/c1ccc2c(c1)C(=O)CC1(CCN(Cc3ccccc3)C1)O2)NO (racemic)    27
CN1CCCC2(CC1)CC(=O)c1cc(/C=C/C(=O)NO)ccc1O2 (racemic)    62
O=C(/C=C/c1ccc2c(c1)C(=O)CC1(CCN(Cc3ccc(F)cc3)CC1)O2)NO    47
O=C(/C=C/c1ccc2c(c1)C(=O)CC1(CCCN(Cc3ccccc3)CC1)O2)NO (racemic)    25
O=C(/C=C/c1ccc2c(c1)C(=O)CC1(CN(Cc3ccccc3)C1)O2)NO    44
Cn1cc(CN2CCCC3(CC(=O)c4cc(/C=C/C(=O)NO)ccc4O3)C2)c2ccccc21 (racemic)    23

[a] Cn1cc(CN2CC3(CC(=O)c4cc(/C=C/C(=O)NO)ccc4O3)C2)c2ccccc21
[b] O=C(/C=C/c1ccc2c(c1)C(=O)CC1(CCCN(CCc3ccccc3)CC1)O2)NO (racemic)
[c] O=C(/C=C/c1ccc2c(c1)C(=O)CC1(CCN(CCc3ccccc3)CC1)O2)NO
[d] O=C(CCCCCCC(=O)Nc1ccccc1)NO
[e] Cn1cc(CN2CCC3(CC(=O)c4cc(/C=C/C(=O)NO)ccc4O3)C2)c2ccccc21 (racemic)
Let's sort these by remaining at 0.5 h, 1 µM, smallest first. Go ahead? Write the labels in rank order as requested.
e, a, b, c, d
(e: 8%, a: 27%, b: 39%, c: 57%, d: 82%)

[I] O=C(/C=C/c1ccc2c(c1)C(=O)CC1(CCCN(Cc3ccc(F)cc3)CC1)O2)NO (racemic)
[II] CN1CCCC2(CC(=O)c3cc(/C=C/C(=O)NO)ccc3O2)C1 (racemic)
Endpoint returns the identifier whose remaining at 0.5 h, 1 µM is numerically larger, either I or II . Respond using the label that marks the chosen record.
II

[I] Cn1cc(CN2CCCC3(CC2)CC(=O)c2cc(/C=C/C(=O)NO)ccc2O3)c2ccccc21 (racemic)
[II] O=C(/C=C/c1ccc2c(c1)C(=O)CC1(CCN(CCc3ccccc3)C1)O2)NO (racemic)
Please indicate which has the smaller reported remaining at 0.5 h, 1 µM: I , or II . Respond using the label that marks the chosen record.
I

----------
Target: CYP1A2 (Homo sapiens, UniProt P05177)
Sequence (P05177 whole entry): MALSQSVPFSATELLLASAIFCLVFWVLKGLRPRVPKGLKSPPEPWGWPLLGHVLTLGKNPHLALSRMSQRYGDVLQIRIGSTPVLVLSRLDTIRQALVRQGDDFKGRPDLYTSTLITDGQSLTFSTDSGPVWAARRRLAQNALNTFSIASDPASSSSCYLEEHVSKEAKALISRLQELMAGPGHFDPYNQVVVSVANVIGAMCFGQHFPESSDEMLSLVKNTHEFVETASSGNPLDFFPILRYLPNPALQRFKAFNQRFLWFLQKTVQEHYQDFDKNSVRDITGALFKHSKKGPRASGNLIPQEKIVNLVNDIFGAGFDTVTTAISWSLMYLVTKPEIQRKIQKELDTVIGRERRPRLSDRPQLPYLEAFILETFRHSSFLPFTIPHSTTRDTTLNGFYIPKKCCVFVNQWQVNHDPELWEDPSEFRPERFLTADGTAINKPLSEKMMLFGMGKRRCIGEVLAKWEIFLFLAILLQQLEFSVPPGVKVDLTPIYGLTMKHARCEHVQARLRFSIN
Assay: Inhibition of human CYP1A2 using 3-cyano-7-ethoxycoumarin as substrate at 10 uM after 15 mins by fluorimetric analysis
Format: ADME
Conditions: probe 3-cyano-7-ethoxycoumarin
measurement_kind: inhibition at 0.25 h, 10 µM (%)

[I] O=C(/C=C/c1ccc2c(c1)C(=O)CC1(CCN(Cc3ccc(F)cc3)CC1)O2)NO
[II] Cn1cc(CN2CC3(CC(=O)c4cc(/C=C/C(=O)NO)ccc4O3)C2)c2ccccc21
[III] O=C(CCCCCCC(=O)Nc1ccccc1)NO
[IV] O=C(/C=C/c1ccc2c(c1)C(=O)CC1(CCN(CCc3ccccc3)CC1)O2)NO
Number of molecules to sort: 4. Sort criterion: inhibition at 0.25 h, 10 µM, ascending. Write the labels in rank order as requested.
I, II, IV, III
